system: Calu-3; experiment: relative viability EC50 (midpoint between 100% and the lowest measured viability); higher = less toxic; details: 72 h
Entries and their relative viability EC50 values follow.
All answers are understood in µM, so give the number only.

{"chemical-smiles": "COc1cccc2cc(-c3nc([C@H]4CC[C@H](C(=O)O)CC4)n4ncnc(N)c34)[nH]c12", "unit-symbol": "µM", "relative viability EC50": 0.145}

relative viability EC50 for `Nc1nc(NC[C@H]2CC[C@H](CNS(=O)(=O)c3cccc4ccccc34)CC2)nc2ccccc12` is 3.03

----------
test system: Calu-3; experiment: cell viability relative to DMSO; higher = less toxic; conditions: 72 h; 10 nM
reported-endpoint: cell viability (%)
Unit % implied. Number only.

A selection of reference data follows.
{"molecule": "CC(COc1ccccc1)N(CCCl)Cc1ccccc1 (stereo unspecified)", "measurement-target": "Calu-3", "cell viability [%]": 109}
{"molecule": "CN1CCCC(CN2c3ccccc3Sc3ccccc32)C1 (stereo unspecified)", "measurement-target": "Calu-3", "cell viability [%]": 99.2}
{"molecule": "OCCN1CCN(CC/C=C2/c3ccccc3Sc3ccc(Cl)cc32)CC1", "measurement-target": "Calu-3", "cell viability [%]": 93.9}

For record `Cn1ccnc1S` the listed cell viability is 97.3

`C[C@]1(c2nc3c(C(N)=O)cccc3[nH]2)CCCN1` has a reported cell viability of 100

For record `CNCCn1c(=O)c2cc(OC)c(OC)cc2c2cnc3cc4c(cc3c21)OCO4` the listed cell viability is 92.9

----------
The molecules listed here are annotated with their cell viability.
tested on: Vero E6; experiment: cell viability relative to DMSO; higher = less toxic; conditions: 72 h; 10000 nM

{"molecule": "CNC(=O)[C@@H](Cc1ccccc1)N(C)C(=O)[C@@H](Cc1ccc2ccccc2c1)N(C)C(=O)/C=C/CC(C)(C)N", "reported-result": "99.1%"}
{"molecule": "CSc1ccc(OCc2ncc([N+](=O)[O-])n2C)cc1", "reported-result": "97%"}
{"molecule": "O=C(NC1CC1)c1cc(-c2cccs2)on1", "reported-result": "101%"}

The recorded cell viability for `COc1cc(OC)c(OC)cc1C=O` is 102%

----------
system: Vero E6; experiment: cell viability relative to DMSO; higher = less toxic; settings: 72 h; 1000 nM
cell viability values for the molecules below.

Worked cases, cell viability given:
{"molecule": "Cc1oc2nc3c(c(NC(=O)CN4CCCC4=O)c2c1C)CCCC3", "cell viability": "92.5%"}
{"molecule": "C/C(=N\\NC(=S)N1CCC1)c1ccccn1", "cell viability": "31.3%"}
{"molecule": "CC1Cc2ccccc2N1NC(=O)c1ccc(Cl)c(S(N)(=O)=O)c1 (centres undefined) [indapamide]", "cell viability": "97.4%"}

cell viability measured on `CC(=O)NC1=NN(C(C)=O)[C@](C)(c2ccccc2)S1` = 96.2%

The recorded cell viability for entry `Ic1cc(-c2ccccc2)ncn1` equals 105%

Input `Cc1cc(CCCOc2c(C)cc(-c3noc(C(F)(F)F)n3)cc2C)on1` . Output cell viability: 92.5%

Reported cell viability ( `N[C@@H](Cn1ccc(=O)n(Cc2ccccc2C(=O)O)c1=O)C(=O)O` ) = 101%

Short answer for `CC(=O)N[C@@H](C=O)[C@@H](O)[C@H](O)[C@H](O)CO` : cell viability was 106%

Form: molecule = `COc1cc2c(cc1OC)CN(C(=O)[C@@H](NCc1ccncc1)C(C)(C)C)CC2` ; cell viability = 93.9%

Where these numbers come from: the supplement of paper PMC13380429
